# Method summary: qHTS assay to identify small molecule agonists of the estrogen related receptor (ERR) signaling pathway from Tox21 library (AID 1224849); further: on the % scale 0 is the no-effect control and ±100 the full control effect; nearly all actives have a fitted effect of over 15% in size
# Measurement conditions: ERR reporter cell line, ONE-Glo luciferase, 18 h; at 92.4 µM (top of the series) unless noted
Activity calls are given as the source filed them. The call rests on the fitted dose curve.
Measurement kind: activity change, positive = activation

CC(C)CC(=O)O : 4.14% (inactive)
COC(=O)C1CC(=O)C(C(=O)OC)CC1=O (stereo not drawn) : -0.229% [at 8.39 µM] (inactive)
COCCOCCOCCOCCOCCO : 2.08% (inactive)
COc1cc(N)ccc1C : -31.2% (inactive)
C[Si](C)=O : 0.654% [at 8.39 µM] (inactive)
C=C(C)C(=O)OCCNC(C)(C)C : -2.14% (inactive)

Task: Provide measured activity change, positive = activation value, entry: CN=C(NC#N)Nc1ccc(C2=NNC(=O)CC2C)cc1 (stereo not drawn)
Result: 5.55% [at 42.5 µM] (inactive)

Task: Provide measured activity change, positive = activation value, entry: `CC(C)=CCOC(=O)c1ccccc1`
Result: 2.82% (inactive)
